Each entry below carries its measured IC50, system: Gag-Pol polyprotein [588-1027]/[588-1147] (Human immunodeficiency virus 1, UniProt P04585).

Worked examples, 3 compounds total:
CCCN1C(=O)c2cccn2S(=O)(=O)c2ccccc21: 24 µM
CCOC(=O)CN1C(=O)c2cccn2S(=O)(=O)c2ccccc21: 31 µM
O=C1Nc2ccc(Cl)cc2S(=O)(=O)n2cccc21: 0.7 µM

Identify the measured IC50 of CN1C(=O)c2cccn2S(=O)(=O)c2ccccc21 for Gag-Pol polyprotein [588-1027]/[588-1147] (Human immunodeficiency virus 1, UniProt P04585).
11 µM

Checklist item: IC50 tested on Gag-Pol polyprotein [588-1027]/[588-1147] (Human immunodeficiency virus 1, UniProt P04585), entry CC(C)N1C(=O)c2cccn2S(=O)(=O)c2ccccc21 , value?
6.3 µM

----------
Reported pIC50 by item:
MEASURED TARGET: Gag-Pol polyprotein [588-1027]/[588-1147] (Human immunodeficiency virus 1, UniProt P04585)
FYI, pIC50 means -log10 of a concentration in mol per litre.

Answered examples (4):
Cn1c2ccccc2n2c(c3cccn31)=C(O)N(CCN1CCOCC1)CC2=O: 5.20
CCN1C(=O)c2cccn2S(=O)(=O)c2cc(Cl)ccc21: 5.57
C/C=C/CN1C(=O)c2cccn2S(=O)(=O)c2ccccc21: 4.68
CN(C)CCCN1CC(=O)n2c(c3cccn3n(C)c3ccccc32)=C1O: 4.62

For the next question, use this compound.
Which pIC50 is listed for O=C1Nc2ccccc2S(=O)(=O)n2cccc21 ?
5.40

----------
The following compounds each carry a recorded pIC50 for Gag-Pol polyprotein [588-1027]/[588-1147] (Human immunodeficiency virus 1, UniProt P04585).
Here pIC50 is given on a logarithmic scale as minus log10 of the concentration in mol/L.

Some entries whose results are on file:
C/C=C\CN1C(=O)c2cccn2S(=O)(=O)c2cc(Cl)ccc21: 5.51
CN1C(=O)c2cccn2S(=O)(=O)c2cc(Cl)ccc21: 6.30
C=CCN1C(=O)c2cccn2S(=O)(=O)c2cc(Cl)ccc21: 5.54
CCN1C(=O)c2cccn2S(=O)(=O)c2ccccc21: 5.00

Find pIC50 (Gag-Pol polyprotein [588-1027]/[588-1147] (Human immunodeficiency virus 1, UniProt P04585)) for the entry C=CCN1C(=O)c2cccn2S(=O)(=O)c2ccccc21
5.02

Value source: BindingDB's records for doi:10.1016/0968-0896(96)00075-2
